- MEASUREMENT_TARGET: UniProt Q14416
- Sequence (Q14416 19-872): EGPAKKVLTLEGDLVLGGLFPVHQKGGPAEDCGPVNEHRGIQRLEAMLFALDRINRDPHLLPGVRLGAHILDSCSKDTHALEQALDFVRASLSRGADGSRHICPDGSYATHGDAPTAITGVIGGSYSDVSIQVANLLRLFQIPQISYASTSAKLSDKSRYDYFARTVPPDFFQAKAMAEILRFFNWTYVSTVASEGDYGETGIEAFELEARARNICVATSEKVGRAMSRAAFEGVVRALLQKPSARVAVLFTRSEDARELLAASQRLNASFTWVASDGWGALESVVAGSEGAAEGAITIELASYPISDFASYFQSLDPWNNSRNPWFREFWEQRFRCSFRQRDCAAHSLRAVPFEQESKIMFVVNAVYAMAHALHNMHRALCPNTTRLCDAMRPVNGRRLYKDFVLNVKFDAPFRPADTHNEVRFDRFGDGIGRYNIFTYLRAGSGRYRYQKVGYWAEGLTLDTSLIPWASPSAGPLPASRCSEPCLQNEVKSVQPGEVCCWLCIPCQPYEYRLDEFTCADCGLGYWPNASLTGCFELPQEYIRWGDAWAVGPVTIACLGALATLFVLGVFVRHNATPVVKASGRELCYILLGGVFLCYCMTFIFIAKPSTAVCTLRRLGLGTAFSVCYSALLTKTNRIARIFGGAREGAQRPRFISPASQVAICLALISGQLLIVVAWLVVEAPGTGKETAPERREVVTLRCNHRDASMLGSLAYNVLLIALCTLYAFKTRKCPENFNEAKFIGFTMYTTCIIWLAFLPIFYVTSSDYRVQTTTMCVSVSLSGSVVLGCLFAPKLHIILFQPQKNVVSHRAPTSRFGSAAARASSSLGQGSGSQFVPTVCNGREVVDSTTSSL
- ASSAY_SUMMARY: Competitive binding assay with [3H]JNJ-46281222 in mGluR2 transfected CHO cells
- CONDITION_LABEL: read-out: IC50 ± SEM; mGluR2 transfected CHO cells; 10 nM [3H]JNJ-46281222
MEASURED_PROPERTY: IC50 (µM)

{"COMPOUND_SMILES": "COc1cc(C(F)(F)F)ccc1OC[C@@H]1[C@H]2CN(Cc3nc4ncccc4n3C)C[C@@H]12", "ENDPOINT_VALUE": 0.0105}
